Target: Ubiquitin carboxyl-terminal hydrolase 1 (Homo sapiens)
Test: Inhibitors of USP1/UAF1: Pilot qHTS (AID 504865);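 also: rhodamine fluorescence freed from ubiquitin-rhodamine substrate followed over time; top concentration of the series differs between compounds; nearly all actives have a fitted effect of over 35% in size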
Conditions: purified USP1/UAF1, Ub-rhodamine cleavage fluorescence; series mostly up to 114 µM
Description: Deubiquitinating enzymes (DUBs) are a class of enzymes that can cleave isopeptide bond formed between the C-terminal carboxylate of ubiquitin and a lysine side-chain amino group on the target protein. Among them, ubiquitin specific proteases (USPs) constitute the largest DUB family. […]
Records with an inconclusive call do not appear. Activity calls are given as the source filed them. Calls follow the shape of the dose curve; as a rule, active = well fitted inhibition curve with a large enough effect; inconclusive = small, poorly fitted or top-dose-only effect; inactive = flat fitted curve, though single readings scatter.
Reported Metric: outcome

Below, 6 molecules whose answers are already recorded.
INSERT INTO results (molecule, assayed_target, result) VALUES
  ('CCN1CCCC1CNC(=O)c1cc(S(=O)(=O)CC)c(N)cc1OC (configuration not stated)', 'Ubiquitin carboxyl-terminal hydrolase 1 (Homo sapiens)', 'inactive'),
  ('NC(=O)NO', 'Ubiquitin carboxyl-terminal hydrolase 1 (Homo sapiens)', 'inactive'),
  ('CCOC(=O)C(C)(C)Oc1ccc(Cl)cc1', 'Ubiquitin carboxyl-terminal hydrolase 1 (Homo sapiens)', 'inactive'),
  ('O=c1[nH]cc(F)c(=O)[nH]1', 'Ubiquitin carboxyl-terminal hydrolase 1 (Homo sapiens)', 'inactive'),
  ('CC1COc2c(N3CCN(C)CC3)c(F)cc3c(=O)c(C(=O)O)cn1c23 (configuration not stated)', 'Ubiquitin carboxyl-terminal hydrolase 1 (Homo sapiens)', 'inactive'),
  ('CCOC(=O)c1ncn2c1CN(C)C(=O)c1cc(F)ccc1-2', 'Ubiquitin carboxyl-terminal hydrolase 1 (Homo sapiens)', 'inactive');

Now consider a different molecule.
[ask] Identify the measured outcome of O=C1N(c2ccccc2)c2ccccc2C1(Cc1ccncc1)Cc1ccncc1 for Ubiquitin carboxyl-terminal hydrolase 1 (Homo sapiens).
[reply] inactive
